test_system: Cellular tumor antigen p53 (Homo sapiens)
procedure_details: TOX21_p53_BLA_p5_ratio: Tox21 HCT-116 p53 Agonism Beta-lactamase Assay, Ratio, Phase 5 (AID 2283599)
Results filed as inconclusive are left out. The source made the active and inactive calls. The calls were made as follows: active = hit-call score of the fitted dose curve at least 0.9, where 1 is the maximum; inconclusive = response in the unintended direction; inactive = score below 0.9.
Answer with one of the outcomes YES for active, NO for inactive

1. Nc1cc(S(=O)(=O)O)cc2cc(S(=O)(=O)O)cc(O)c12 ... NO
2. CN(C)CCC=C1c2ccccc2CSc2ccccc21 ... NO
3. CCCc1ccc(C(=O)O)cc1 ... NO
4. Oc1ccc(Oc2ccccc2)cc1 ... NO
5. CNC[C@H](O)[C@@H](O)[C@H](O)[C@H](O)CO ... NO
6. CCCCCCCCCCCCCCC(=O)O ... NO
7. CC(C)C(=O)OCC(=O)[C@@]12O[C@H](C3CCCCC3)O[C@@H]1C[C@H]1[C@@H]3CCC4=CC(=O)C=C[C@]4(C)[C@H]3[C@@H](O)C[C@@]12C ... NO
8. CC[N+](C)(C)Cc1ccccc1Br ... NO
9. COC(=O)C(c1ccccc1Cl)N1CCc2sccc2C1 (centres undefined) ... NO
10. Cc1cccc(C)c1Nc1ncccc1C(=O)O ... NO

Just curious, what result did `CCCCOC(=O)c1ccc(N)cc1` get here?
NO

Just curious, what result did `CC1(C)[C@@H](OC(=O)CCC(=O)O)CC[C@]2(C)[C@H]3C(=O)C=C4[C@@H]5C[C@@](C)(C(=O)O)CC[C@]5(C)CC[C@@]4(C)[C@]3(C)CC[C@@H]12` get here?
NO

---

System: SRY-box transcription factor 2 (SOX2) Protein Expression, Deisenroth Lab, SOX2 (gene 6657)
procedure_details: CCTE_Deisenroth_DEVTOX-GLR_Endo_SOX2: CCTE's DevTox GLR-Endo Assay Evaluation of SRY-box transcription factor 2 (SOX2) Protein Expression, Deisenroth Lab (AID 2284412)
Results filed as inconclusive are left out. The source made the active and inactive calls. The calls were made as follows: active = hit-call score of the fitted dose curve at least 0.9, where 1 is the maximum; inconclusive = response in the unintended direction; inactive = score below 0.9.
quantity_name: AC50

# return recorded AC50 for input `Cc1ccc(NC(=O)c2ccc(CN3CCN(C)CC3)cc2)cc1Nc1nccc(-c2cccnc2)n1`
25.6 µM (active)

---

procedure_details: ATG_Sox_CIS: Attagene CIS-FACTORIAL HepG2 Assay for human SRY-box transcription factor (SOX) (AID 2282960)
cond: HepG2 Attagene cis-factorial SOX reporter, mRNA; actives raise or lower the signal
Active and inactive are the calls of the source. Rule for the calls: active = hit-call score of the fitted dose curve at least 0.9, where 1 is the maximum; inactive = score below 0.9.
Answer with one of the outcomes yes for active, no for inactive

Just curious, what result did `CCCCCCCC#N` get here?
no

Just curious, what result did `CC(C)CC(=O)O` get here?
no

Just curious, what result did `CCO[Si](OCC)(OCC)c1ccccc1` get here?
no

Just curious, what result did `CC(O)(P(=O)(O)O)P(=O)(O)O` get here?
no

Just curious, what result did `Sc1nc2ccccc2s1` get here?
no

Just curious, what result did `C[C@H]1C[C@H]2[C@@H]3CCC4=CC(=O)C=C[C@]4(C)[C@@]3(F)[C@@H](O)C[C@]2(C)[C@@]1(O)C(=O)CO` get here?
no

Just curious, what result did `CC(=O)c1nccs1` get here?
no

Just curious, what result did `Oc1ccc(Cl)cc1C1CCCC1` get here?
yes

Just curious, what result did `Clc1ccccn1` get here?
no

Just curious, what result did CCCCCCCCCCC1CO1 (stereo not given) get here?
no

Just curious, what result did `CN(C)N=Nc1ccccc1` get here?
no

Just curious, what result did O=C(C1CCCCC1)N1CC(=O)N2CCc3ccccc3C2C1 (stereo not given) get here?
no

Just curious, what result did CCCCCCC1CCC(=O)O1 (stereo not given) get here?
no

Just curious, what result did `CC(C)CC(=O)CC(C)C` get here?
no

Just curious, what result did `C=CCOC(=O)C(=C)C` get here?
no

---

procedure_details: CCTE_Shafer_MEA_dev_mutual_information_norm: CCTE's Neural Network Formation Assay for Mutual Information Normalization, Shafer Lab (AID 2284091)
Calls of active or inactive are those of the source. Rule for the calls: active = hit-call score of the fitted dose curve at least 0.9, where 1 is the maximum; inactive = score below 0.9.
Answer with one of the outcomes yes (1) (active), no (0) (inactive)

1. CC1(C)S[C@@H]2[C@H](NC(=O)[C@H](N)c3ccc(O)cc3)C(=O)N2[C@H]1C(=O)O ... no (0)

Just curious, what result did `[Cl-].[Cl-].[NH2-].[NH2-].[Pt+4]` get here?
no (0)

Just curious, what result did CC(C)(C)NCC(O)c1cc(O)cc(O)c1 (stereo not given) get here?
no (0)

Just curious, what result did `C[C@H](CS)C(=O)N1CCC[C@H]1C(=O)O` get here?
no (0)

Just curious, what result did CNCCC(Oc1ccc(C(F)(F)F)cc1)c1ccccc1 (stereo not given) get here?
yes (1)

---

test_system: Cellular tumor antigen p53 (Homo sapiens) (UniProt P04637)
Sequence (P04637 whole entry, looked up): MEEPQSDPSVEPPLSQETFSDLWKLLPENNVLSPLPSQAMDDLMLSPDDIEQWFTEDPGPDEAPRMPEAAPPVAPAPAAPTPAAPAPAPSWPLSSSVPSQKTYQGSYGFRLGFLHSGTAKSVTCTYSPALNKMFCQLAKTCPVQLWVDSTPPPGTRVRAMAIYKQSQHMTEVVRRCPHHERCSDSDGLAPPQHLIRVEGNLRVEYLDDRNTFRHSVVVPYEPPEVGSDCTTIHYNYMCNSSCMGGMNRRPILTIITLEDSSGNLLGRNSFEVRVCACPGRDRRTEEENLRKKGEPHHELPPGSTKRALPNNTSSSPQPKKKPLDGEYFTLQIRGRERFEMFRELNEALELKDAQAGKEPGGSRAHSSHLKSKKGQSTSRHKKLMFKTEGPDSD
procedure_details: TOX21_p53_BLA_p5_ratio: Tox21 HCT-116 p53 Agonism Beta-lactamase Assay, Ratio, Phase 5 (AID 2283599)
Results filed as inconclusive are left out. Active and inactive are the calls of the source. The calls were made as follows: active = hit-call score of the fitted dose curve at least 0.9, where 1 is the maximum; inconclusive = response in the unintended direction; inactive = score below 0.9.
Answer with one of the outcomes TRUE (active), FALSE (inactive)

Solved entries (count: 5):
1. O=C(O)CNCC(=O)O ... FALSE
2. CCCCC(=O)OCC(=O)[C@]1(O)Cc2c(O)c3c(c(O)c2[C@@H](O[C@H]2C[C@H](NC(=O)C(F)(F)F)[C@H](O)[C@H](C)O2)C1)C(=O)c1c(OC)cccc1C3=O ... TRUE
3. OCCN1CCN(CCCN2c3ccccc3Sc3ccc(C(F)(F)F)cc32)CC1 ... FALSE
4. C[N+]1([O-])CCOCC1 ... FALSE
5. CN1CCN(CCCN2c3ccccc3Sc3ccc(Cl)cc32)CC1 ... TRUE

Shift focus to the following entry.
Just curious, what result did `N=C(N)n1cccn1` get here?
FALSE

---

Read-out: Interleukin 17F (IL17F), IL17F (gene 112744)
procedure_details: BSK_BT_xIL17F: BioMAP Diversity Plus: BT Assay for Interleukin 17F (IL17F) Biomarker Activity (AID 2284243)
cond: primary human B cells with PBMC
Activity calls are given as the source filed them. The calls were made as follows: active = hit-call score of the fitted dose curve at least 0.9, where 1 is the maximum; inactive = score below 0.9.
Answer with one of the outcomes 1 for active, 0 for inactive

Solved entries (count: 4):
1) Oc1cccc2ccccc12 ... 0
2) COC(=O)/C=C\C(=O)OC ... 1
3) CN(C)CCC(c1ccc(Cl)cc1)c1ccccn1 (centres undefined) ... 0
4) CCCCCCCCCCC1CO1 (centres undefined) ... 0

Just curious, what result did `O=C(C(=O)c1ccccc1)c1ccccc1` get here?
0

Just curious, what result did `Cc1cc(-n2nc3ccc(Cl)cc3n2)c(O)c(C(C)(C)C)c1` get here?
0

Just curious, what result did `CC[N+](CC)(CC(=O)Nc1c(C)cccc1C)Cc1ccccc1` get here?
0

Just curious, what result did CC(C)CC(=O)CC(C)CC(C)C (centres undefined) get here?
0

Just curious, what result did `CN(C)c1ccc(C(c2ccccc2)c2ccc(N(C)C)cc2)cc1` get here?
1

---

test_system: Cellular tumor antigen p53 (Homo sapiens)
procedure_details: TOX21_p53_BLA_p5_ratio: Tox21 HCT-116 p53 Agonism Beta-lactamase Assay, Ratio, Phase 5 (AID 2283599)
Results filed as inconclusive are left out. Calls of active or inactive are those of the source. The calls were made as follows: active = hit-call score of the fitted dose curve at least 0.9, where 1 is the maximum; inconclusive = response in the unintended direction; inactive = score below 0.9.
Answer with one of the outcomes YES = active, NO = inactive

Solved entries (count: 3):
1. CC1C(=O)CC2C3(C)CCC2(C(C)C(=O)O)C(=O)C13 (centres undefined) ... NO
2. CCC(=O)OCC(=O)[C@@]1(OC(=O)CC)[C@@H](C)C[C@H]2[C@@H]3CCC4=CC(=O)C=C[C@]4(C)[C@@]3(F)[C@@H](O)C[C@@]21C ... NO
3. NC(=O)c1ccc([N+](=O)[O-])cc1Cl ... NO

Just curious, what result did `NCc1ccccc1CC(=O)N[C@@H]1C(=O)N2C(C(=O)O)=C(CSc3nnnn3CC(=O)O)CS[C@H]12` get here?
NO

Just curious, what result did `C=CCn1c(=O)n(CC=C)c(=O)n(CC=C)c1=O` get here?
NO

Just curious, what result did `O=C1c2cccc(O)c2C(=O)c2c(O)cccc21` get here?
NO

Just curious, what result did `O=C(O)CNC(=O)c1ccc([N+](=O)[O-])cc1` get here?
NO

Just curious, what result did `CCCCC(=O)N(C)C` get here?
NO

---

procedure_details: TOX21_p53_BLA_p2_viability: Viability Assessment in the Tox21 HCT-116 p53 Agonism Beta-lactamase Assay, Phase 2 (AID 2283591);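 also: compound exposure lasted 16 h at 37 °C; actives lower the ATP signal meaning cytotoxicity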
Records with an inconclusive call do not appear. Activity calls are given as the source filed them. How the source made its calls: active means hit-call score of the fitted dose curve at least 0.9, where 1 is the maximum; inconclusive means response in the unintended direction; inactive means score below 0.9.
quantity_name: AC50

1. C[C@@H](O)[C@H]1C(=O)N2C(C(=O)O)=C(S[C@@H]3CN[C@H](C(=O)N(C)C)C3)[C@H](C)[C@H]12 ... inactive
2. C[C@]12CCC(=O)C=C1CC[C@@H]1[C@@H]2CC[C@@]2(C)[C@H]1CC[C@]2(O)C(=O)CO ... inactive
3. O=C(O)c1cc2ccccc2c(Cc2c(O)c(C(=O)O)cc3ccccc23)c1O ... inactive
4. O=C(O)c1ccc(NC2OC[C@@H](O)[C@H](O)[C@H]2O)cc1 (some centres not stated) ... inactive
5. CCN1CCC[C@H]1CNC(=O)c1c(O)c(Cl)cc(Cl)c1OC ... inactive
6. CC(C)OC(=O)CCCCC(=O)OC(C)C ... inactive

# return recorded AC50 for input CCC(C)C1N=C(C)C(C)S1 (configuration not stated)
inactive

# return recorded AC50 for input COc1ccc(CCN(C)CCCC(C#N)(c2ccc(OC)c(OC)c2)C(C)C)cc1OC (configuration not stated)
inactive

# return recorded AC50 for input `NC[C@@H]1CC[C@@H](N)[C@@H](O[C@H]2[C@H](O)[C@@H](O[C@H]3O[C@H](CO)[C@@H](O)[C@H](N)[C@H]3O)[C@H](N)C[C@@H]2N)O1`
inactive

# return recorded AC50 for input `CC1=C(C)C(=O)C(CCCCC#CCCCC#CCO)=C(C)C1=O`
inactive

# return recorded AC50 for input `C[C@H](CCC(=O)O)[C@H]1CC[C@H]2[C@@H]3[C@H](O)C[C@@H]4C[C@H](O)CC[C@]4(C)[C@H]3C[C@H](O)[C@]12C`
inactive

# return recorded AC50 for input `CCCCC`
inactive

Hey, just so you know, these numbers are from PubChem BioAssay (EPA / NIEHS).
